assay: qHTS of pediatric cancer cell lines to identify multiple opportunities for drug repurposing: Primary screen for NB1643 cells (AID 1347099); note: nearly all actives have a fitted effect of over 50% in size; note: potency is the fitted concentration of half-maximal effect
assay.context: NB1643 neuroblastoma viability, CellTiter-Glo luminescence, 48 h; series mostly up to 46 µM
Inconclusive results are not listed. Activity calls are given as the source filed them. Calls come from the whole dose curve; as a rule, active = well fitted cell-killing curve with a large enough effect; inconclusive = small, poorly fitted or top-dose-only effect; inactive = no such curve, though single readings can be large or run the other way.
readout: Potency

Reference set, count: 5
COc1ccc(-c2cc(=O)c3c(O)cc(O[C@@H]4O[C@H](CO[C@@H]5O[C@@H](C)[C@H](O)[C@@H](O)[C@@H]5O)[C@@H](O)[C@H](O)[C@@H]4O)cc3o2)cc1O    16.6 µM (active)
c1ccc(CNc2nc(N3CCOc4ccccc43)nc3c2CCCC3)cc1    23.5 µM (active)
Cc1cc2c(cc1C1(c3ccc(C(=O)O)cn3)CC1)C(C)(C)CCC2(C)C    inactive
Cc1cc(-c2ncc(CC(=O)Nc3ccc(-c4cnccn4)cn3)cc2C)ccn1    16.6 µM (active)
CC1(C)OC2CC3C4CC(F)C5=CC(=O)C=CC5(C)C4C(O)CC3(C)[C@]2(C(=O)CO)O1 (some centres undefined)    inactive

## Input Need Potency, item OC[C@H]1O[C@@H](O[C@H]2[C@@H](O)[C@@](O)(CO)O[C@@H]2CO)[C@H](O)[C@@H](O)[C@@H]1O
## Output inactive

## Input Subsequent entry: NC(=O)c1noc([C@H](CCCC2CCCCC2)CC(=O)NO)n1
## Output 18.7 µM (active)

## Input Subsequent entry: O=C1NC(=O)C(=Cc2ccc(-c3ccc(F)cc3O)o2)S1
## Output inactive

## Input Subsequent entry: O=C(O)C1=CO[C@@H](O[C@@H]2O[C@H](CO)[C@H](O)[C@H](O)[C@H]2O)[C@@H]2C(CO)=CC[C@H]12
## Output inactive

## Input Subsequent entry: O=C(c1ccc(C(=O)N2CCC(N3CCCC3)CC2)c(Nc2ccccc2)c1)N1CCC(N2CCCC2)CC1
## Output inactive

## Input Subsequent entry: CCOC(=O)[C@@H](N)CCC(=O)N[C@@H](CSCc1ccccc1)C(=O)N[C@@H](C(=O)OCC)c1ccccc1
## Output inactive
